Target: human FSH receptor (Homo sapiens, UniProt P23945)
Construct: expressed in transfected cells; host or cells: Chinese Hamster Ovary (CHO) cells, stably transfected, cotransfected with CRE/promotor-firefly luciferase reporter
Sequence (P23945 18-695): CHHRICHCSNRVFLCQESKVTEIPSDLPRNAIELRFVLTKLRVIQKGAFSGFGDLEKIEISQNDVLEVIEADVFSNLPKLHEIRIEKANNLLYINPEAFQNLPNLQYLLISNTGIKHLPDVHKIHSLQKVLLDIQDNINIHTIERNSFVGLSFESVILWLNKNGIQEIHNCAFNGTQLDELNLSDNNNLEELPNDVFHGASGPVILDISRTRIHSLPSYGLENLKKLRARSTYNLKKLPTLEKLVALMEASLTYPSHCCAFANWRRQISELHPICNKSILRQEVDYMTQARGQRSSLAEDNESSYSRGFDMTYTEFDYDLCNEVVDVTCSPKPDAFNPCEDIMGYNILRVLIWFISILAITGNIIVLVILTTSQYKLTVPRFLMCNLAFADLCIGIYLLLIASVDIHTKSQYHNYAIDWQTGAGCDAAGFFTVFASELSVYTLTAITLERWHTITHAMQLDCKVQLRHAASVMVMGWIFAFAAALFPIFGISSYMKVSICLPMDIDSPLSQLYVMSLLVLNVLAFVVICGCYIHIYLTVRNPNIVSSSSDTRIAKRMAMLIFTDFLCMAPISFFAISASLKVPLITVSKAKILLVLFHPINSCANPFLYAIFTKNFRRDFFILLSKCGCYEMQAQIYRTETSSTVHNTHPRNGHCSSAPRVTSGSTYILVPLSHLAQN
Assay: Agonistic activity of compounds at the human FSH receptor expressed in CHO cells, CRE/luciferase reporter (hFSHRago (CHO luc))
Type: cell-based
Conditions: CHO cells stably transfected with the human FSH receptor and CRE/firefly luciferase reporter; 4 hours of incubation; half-maximal stimulation relative to the compound's own maximal effect; read-out: hFSHRago (CHO luc) EC50
Excerpt: The term EC50 means the concentration of the test compound that elicits half-maximal (50 %) stimulation compared to the compound's maximally attainable effect. The values can be determined e.g. in a cell line transfected with a FSH receptor gene and cotransfected with a cAMP responsive element/promoter directing the expression of a reporter gene. Values can be determined using a software program such as MathIQ (version 2.0, ID Business Solutions Limited). […]
pEC50: −log10 of the molar value.
Metric name: pEC50

COC(=O)NCCOc1cc2c(cc1OC)CCn1c(C(=O)N(C)C(C)(C)C)nc(-c3cccs3)c1-2 [Example 33] = 6.85

A. CCc1cc2c(cc1CC(C)C)-c1c(-c3cccs3)nc(C(=O)N(C)C(C)(C)C)n1CC2 [Example 19e]
B. COc1cc2c(cc1-c1c(C)noc1C)-c1c(-c3cccs3)nc(C(=O)N(C)C(C)(C)C)n1CC2 [Example 2m]
Lab note: record which item had the higher pEC50, A or B . Returns: label corresponding to the selected item.
B

a. COc1cc2c(cc1NC(=O)c1cccnc1)-c1c(-c3cccs3)nc(C(=O)N(C)C(C)(C)C)n1CC2 [Example 9]
b. CC(C)Cc1ccc2c(c1)-c1c(-c3cccs3)nc(C(=O)N(C)C(C)(C)C)n1CC2 [Example 20b]
// which entry reports the smaller pEC50, a or b ? Return value: the label identifying the chosen record.
b

P. COc1ccccc1-c1cc2c(cc1OC)CCn1c(C(=O)N(C)C(C)(C)C)nc(-c3cccs3)c1-2 [Example 2q]
Q. COc1cc2c(cc1NC(=O)c1csnn1)-c1c(-c3cccs3)nc(C(=O)N(C)C(C)(C)C)n1CC2 [Example 12]
R. COc1cc2c(cc1OC)-c1c(-c3ccc(F)cc3)nc(C(=O)N3CCCN(C(C)=O)CC3)n1CC2 [Example 50e]
S. COc1cc2c(cc1N)-c1c(-c3cccs3)nc(C(=O)N(C)C(C)(C)C)n1CC2 [Example 6b]
Task field, ranking: reported pEC50, descending order. # list labels per requested ordering
Q, P, R, S
(Q: 7.82, P: 7.30, R: 6.50, S: 6.13)

A. COc1cc2c(cc1-c1cccc(S(C)(=O)=O)c1)-c1c(-c3cccs3)nc(C(=O)N(C)C(C)(C)C)n1CC2 [Example 2p]
B. COc1cc2c(cc1Br)-c1c(-c3cccs3)nc(C(=O)N(C)C(C)(C)C)n1CC2 [Example 1j]
For the pair A and B , which entry has the numerically smaller recorded pEC50? // return label of chosen record
B

a. COCOc1cc2c(cc1OC)CCn1c(C(=O)N(C)C(C)(C)C)nc(-c3cccs3)c1-2 [Example 35b]
b. COc1cc2c(cc1-c1cccc(N(C)C)c1)-c1c(-c3cccs3)nc(C(=O)N(C)C(C)(C)C)n1CC2 [Example 2l]
c. COc1cc2c(cc1NC(=O)C(C)C)-c1c(-c3cccs3)nc(C(=O)N(C)C(C)(C)C)n1CC2 [Example 46]
Arrange items by their pEC50 values in increasing order. To answer, arrange all of the labels according to the requested order.
c, a, b
